Experiment: Biodistribution in Jurkat tumor-bearing CB-17 SCID mice
Type: in vivo
Conditions: female, CB-17 SCID, mouse, in vivo, iv, total radioactivity, Kidney; 1 h p.i.; Jurkat xenograft, CB-17 SCID female mice; read-out: % iD/g Kidney
Description: All animal experiments were conducted in accordance with general animal welfare regulations in Germany and the institutional guidelines for the care and use of animals. […] Approximately 0.5-20 MBq (0.02-0.20 nmol) of the ^125I-, ^177Lu-, ^99mTc-, ^18F- or ^68Ga-labeled ligand were injected into the tail vein of Jurkat tumor-bearing CB-17 SCID mice and the animals sacrificed after the respective biodistribution time. Selected organs were removed, weighted and measured in a γ-counter.
Positions of bridges follow the written chain, without caps; N, C: chain ends. Non-standard residues stand in square brackets, D forms with d. Residues, ends and D or L forms follow the SMILES beside them. Groups on a side chain read outwards from the residue. Chains are numbered I, II in the order given. *: point of attachment. X6 = CN1/C(=C/C=C/C=C/C2=[N+](CCCCCC(=O)*)c3ccc(S(=O)(=O)[O-])cc3C2(C)C)C(C)(C)c2cc(S(=O)(=O)O)ccc21; Tyr(3-I) = N[C@@H](Cc1ccc(O)c(I)c1)C(=O)O; 2Nal = N[C@@H](Cc1ccc2ccccc2c1)C(=O)O; d2Nal = N[C@H](Cc1ccc2ccccc2c1)C(=O)O; dNMeOrn = CN[C@H](CCCN)C(=O)O; Mercaptoacetyl = O=C(CS)*; 4Abz = Nc1ccc(C(=O)O)cc1; dDap = NC[C@@H](N)C(=O)O
Measured tissue uptake at 1 h, listed per entry.
Record the value in %ID/g, omitting the unit from your answer.

* C[C@@H](NC(=O)[C@@H](CCCNC(=N)N)NC(=O)[C@@H](CN)NC(=O)CCCCC[N+]1=C(/C=C/C=C/C=C2/N(C)c3ccc(S(=O)(=O)O)cc3C2(C)C)C(C)(C)c2cc(S(=O)(=O)[O-])ccc21)C(=O)Nc1ccc(C(=O)NCCC[C@@H]2C(=O)N[C@@H](CCCNC(=N)N)C(=O)N[C@H](Cc3ccc4ccccc4c3)C(=O)NCC(=O)N[C@@H](Cc3ccc(O)c(I)c3)C(=O)N2C)cc1 [CXCR4-OI-2] (cyclo([Tyr(3-I)][dNMeOrn]([4Abz-dA-dR-dDap-X6])R[d2Nal]G)) | 13.9

In the following, a different compound is considered.
# input compound: C[C@@H](NC(=O)[C@@H](CCCNC(=N)N)NC(=O)[C@@H](Cc1c[nH]cn1)NC(=O)[C@@H](CO)NC(=O)[C@@H](CO)NC(=O)[C@@H](CO)NC(=O)CS)C(=O)Nc1ccc(C(=O)NCCC[C@@H]2C(=O)N[C@@H](CCCNC(=N)N)C(=O)N[C@@H](Cc3ccc4ccccc4c3)C(=O)NCC(=O)N[C@H](Cc3ccc(O)cc3)C(=O)N2C)cc1 [Tc-CXCR4-5] (I: Mercaptoacetyl-[dS][dS][dS][dH][dR][dA][4Abz] / II: cyclo([dY][dNMeOrn]R[2Nal]G); amide I:C-II:2) ; wanted: its tissue uptake at 1 h 2.89

* * *

Test: Biodistribution in Jurkat tumor-bearing CB-17 SCID mice
Type: in vivo
Conditions: female, CB-17 SCID, mouse, in vivo, iv, total radioactivity, Stomach; 1 h p.i.; Jurkat xenograft, CB-17 SCID female mice; read-out: % iD/g Stomach
Protocol: All animal experiments were conducted in accordance with general animal welfare regulations in Germany and the institutional guidelines for the care and use of animals. […] Approximately 0.5-20 MBq (0.02-0.20 nmol) of the ^125I-, ^177Lu-, ^99mTc-, ^18F- or ^68Ga-labeled ligand were injected into the tail vein of Jurkat tumor-bearing CB-17 SCID mice and the animals sacrificed after the respective biodistribution time. Selected organs were removed, weighted and measured in a γ-counter.
Positions of bridges follow the written chain, without caps; N, C: chain ends. Non-standard residues stand in square brackets, D forms with d. Residues, ends and D or L forms follow the SMILES beside them. Groups on a side chain read outwards from the residue. Chains are numbered I, II in the order given. *: point of attachment. X6 = CN1/C(=C/C=C/C=C/C2=[N+](CCCCCC(=O)*)c3ccc(S(=O)(=O)[O-])cc3C2(C)C)C(C)(C)c2cc(S(=O)(=O)O)ccc21; Tyr(3-I) = N[C@@H](Cc1ccc(O)c(I)c1)C(=O)O; 2Nal = N[C@@H](Cc1ccc2ccccc2c1)C(=O)O; d2Nal = N[C@H](Cc1ccc2ccccc2c1)C(=O)O; dNMeOrn = CN[C@H](CCCN)C(=O)O; Mercaptoacetyl = O=C(CS)*; 4Abz = Nc1ccc(C(=O)O)cc1; X1 = NCCNCC(CNCCN)C(=O)*; dDap = NC[C@@H](N)C(=O)O
measurement_label: tissue uptake at 1 h (%ID/g)
Record the value in %ID/g, omitting the unit from your answer.

Field: example entries. Status: answers known.
- C[C@@H](NC(=O)[C@@H](CCCNC(=N)N)NC(=O)[C@@H](CN)NC(=O)C(CNCCN)CNCCN)C(=O)Nc1ccc(C(=O)NCCC[C@@H]2C(=O)N[C@@H](CCCNC(=N)N)C(=O)N[C@@H](Cc3ccc4ccccc4c3)C(=O)NCC(=O)N[C@H](Cc3ccc(O)cc3)C(=O)N2C)cc1 [Tc-CXCR4-14] (cyclo([dY][dNMeOrn]([4Abz-dA-dR-dDap-X1])R[2Nal]G)): 1.97
- C[C@@H](NC(=O)[C@@H](CCCNC(=N)N)NC(=O)[C@@H](CN)NC(=O)CCCCC[N+]1=C(/C=C/C=C/C=C2/N(C)c3ccc(S(=O)(=O)O)cc3C2(C)C)C(C)(C)c2cc(S(=O)(=O)[O-])ccc21)C(=O)Nc1ccc(C(=O)NCCC[C@@H]2C(=O)N[C@@H](CCCNC(=N)N)C(=O)N[C@H](Cc3ccc4ccccc4c3)C(=O)NCC(=O)N[C@@H](Cc3ccc(O)c(I)c3)C(=O)N2C)cc1 [CXCR4-OI-2] (cyclo([Tyr(3-I)][dNMeOrn]([4Abz-dA-dR-dDap-X6])R[d2Nal]G)): 4.01

# input molecule: C[C@@H](NC(=O)[C@@H](CCCNC(=N)N)NC(=O)[C@@H](Cc1c[nH]cn1)NC(=O)[C@@H](CO)NC(=O)[C@@H](CO)NC(=O)[C@@H](CO)NC(=O)CS)C(=O)Nc1ccc(C(=O)NCCC[C@@H]2C(=O)N[C@@H](CCCNC(=N)N)C(=O)N[C@@H](Cc3ccc4ccccc4c3)C(=O)NCC(=O)N[C@H](Cc3ccc(O)cc3)C(=O)N2C)cc1 [Tc-CXCR4-5] (I: Mercaptoacetyl-[dS][dS][dS][dH][dR][dA][4Abz] / II: cyclo([dY][dNMeOrn]R[2Nal]G); amide I:C-II:2) ; wanted: its tissue uptake at 1 h 0.7
